Assay system: HDAC6 human recombinant (Homo sapiens, UniProt Q9UBN7)
Construct: purchased Calbiochem 382180
Sequence (Q9UBN7 whole entry): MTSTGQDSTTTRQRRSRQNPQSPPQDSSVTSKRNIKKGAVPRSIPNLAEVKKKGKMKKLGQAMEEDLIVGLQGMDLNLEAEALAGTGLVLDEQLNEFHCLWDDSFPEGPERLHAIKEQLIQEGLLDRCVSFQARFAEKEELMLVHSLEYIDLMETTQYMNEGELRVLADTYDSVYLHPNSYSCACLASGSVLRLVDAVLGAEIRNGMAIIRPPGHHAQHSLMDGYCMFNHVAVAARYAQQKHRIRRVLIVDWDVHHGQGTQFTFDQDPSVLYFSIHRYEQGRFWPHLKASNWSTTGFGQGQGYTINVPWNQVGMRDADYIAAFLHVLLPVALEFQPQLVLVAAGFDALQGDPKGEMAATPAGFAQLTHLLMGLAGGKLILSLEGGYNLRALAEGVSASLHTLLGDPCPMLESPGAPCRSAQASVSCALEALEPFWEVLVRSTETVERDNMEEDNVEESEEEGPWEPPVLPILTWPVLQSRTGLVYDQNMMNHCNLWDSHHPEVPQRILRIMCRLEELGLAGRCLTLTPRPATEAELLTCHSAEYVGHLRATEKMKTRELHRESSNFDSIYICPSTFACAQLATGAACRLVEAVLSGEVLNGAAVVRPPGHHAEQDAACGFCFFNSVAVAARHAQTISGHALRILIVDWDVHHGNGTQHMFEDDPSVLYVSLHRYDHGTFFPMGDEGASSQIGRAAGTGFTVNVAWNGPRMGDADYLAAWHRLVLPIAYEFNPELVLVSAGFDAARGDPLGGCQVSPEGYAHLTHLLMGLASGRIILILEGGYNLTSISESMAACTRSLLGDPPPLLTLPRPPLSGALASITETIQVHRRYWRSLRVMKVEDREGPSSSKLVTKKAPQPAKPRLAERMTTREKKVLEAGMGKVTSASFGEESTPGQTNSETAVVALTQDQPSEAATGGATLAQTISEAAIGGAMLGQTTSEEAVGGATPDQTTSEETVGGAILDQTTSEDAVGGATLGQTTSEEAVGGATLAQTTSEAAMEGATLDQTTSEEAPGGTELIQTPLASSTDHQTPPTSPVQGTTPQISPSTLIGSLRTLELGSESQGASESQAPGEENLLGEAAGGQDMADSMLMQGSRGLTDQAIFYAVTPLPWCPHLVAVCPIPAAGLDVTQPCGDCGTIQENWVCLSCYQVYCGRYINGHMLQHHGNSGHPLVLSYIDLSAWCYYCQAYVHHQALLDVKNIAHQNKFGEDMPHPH
Test protocol: HDAC enzyme activity inhibition (in vitro), HDAC6 assay
Type: biochemical
Particulars: samples at 0.1, 1, 10, 100 and 1000 nM; 37° C. 60 minutes; fluorescence Ex 390, Em 460; read-out: HDAC6 IC50
Measured endpoint: pIC50
Quick note: pIC50 means taking -log10 of the concentration in moles per liter.

See these solved cases before continuing.
Compound: O=c1n(Cc2ccc(-c3nnc(C(F)F)o3)cn2)c2ccc(Cl)cc2n1C1CCN(C2COC2)CC1 [Compound 98]
pIC50: 7.55
//
Compound: Cn1c(=O)n(Cc2ccc(-c3nnc(C(F)F)o3)cc2F)c2cc(-c3ccncc3)ccc21 [Compound 111]
pIC50: 6.49
//
Compound: Cn1c(=O)n(Cc2ccc(-c3nnc(C(F)F)o3)cn2)c2ccc(-c3ccn[nH]3)cc21 [Compound 221]
pIC50: 8.10
//
Compound: CS(=O)(=O)N1CCC(n2c(=O)n(Cc3ccc(-c4nnc(C(F)F)o4)cn3)c3ccccc32)CC1 [Compound 206]
pIC50: 7.24
//
Compound: O=c1oc2cc(-c3ccc(N4CCNCC4)nc3)c(F)cc2n1Cc1ccc(-c2nnc(C(F)F)o2)cn1 [Compound 345]
pIC50: 7.66

Prompt: Can you look up the measured pIC50 of O=c1oc2cc(-c3ccncc3)ccc2n1Cc1ccc(-c2nnc(C(F)F)o2)cn1 [Compound 305] for me?
Response: 7.30

Prompt: Using the record for CC(C)N1CCC(n2cc(-c3ccc4c(c3)sc(=O)n4Cc3ccc(-c4nnc(C(F)F)o4)cn3)cn2)CC1 [Compound 354] , report its pIC50.
Response: 7.80
